// data source = ChEMBL document CHEMBL5352478

Tested on: NB-4
Assay: Antiproliferative activity against human NB4 cells incubated for 48 hrs
Assay type: functional, cell-based
Conditions: NB-4, 48 h
outcomeMeasure: IC50

[
  {
    "chemSmiles": "O=C(/C=C/c1ccc(NC(=O)Cc2cccc3ccccc23)cn1)NO",
    "outcomeMeasure": "IC50",
    "experimentalResult": "84 nM"
  },
  {
    "chemSmiles": "Nc1ccccc1NC(=O)c1ccc(CNc2nccc(-c3cccnc3)n2)cc1",
    "outcomeMeasure": "IC50",
    "experimentalResult": "406 nM"
  },
  {
    "chemSmiles": "Nc1ccccc1NC(=O)c1ccc(NC(=O)Cc2ccc3ccccc3c2)cn1",
    "outcomeMeasure": "IC50",
    "experimentalResult": "210 nM"
  }
]
